- STUDY_TARGET: mouse SphK2 (Mus musculus (Mouse))
- Sequence (Q9JIA7 whole entry): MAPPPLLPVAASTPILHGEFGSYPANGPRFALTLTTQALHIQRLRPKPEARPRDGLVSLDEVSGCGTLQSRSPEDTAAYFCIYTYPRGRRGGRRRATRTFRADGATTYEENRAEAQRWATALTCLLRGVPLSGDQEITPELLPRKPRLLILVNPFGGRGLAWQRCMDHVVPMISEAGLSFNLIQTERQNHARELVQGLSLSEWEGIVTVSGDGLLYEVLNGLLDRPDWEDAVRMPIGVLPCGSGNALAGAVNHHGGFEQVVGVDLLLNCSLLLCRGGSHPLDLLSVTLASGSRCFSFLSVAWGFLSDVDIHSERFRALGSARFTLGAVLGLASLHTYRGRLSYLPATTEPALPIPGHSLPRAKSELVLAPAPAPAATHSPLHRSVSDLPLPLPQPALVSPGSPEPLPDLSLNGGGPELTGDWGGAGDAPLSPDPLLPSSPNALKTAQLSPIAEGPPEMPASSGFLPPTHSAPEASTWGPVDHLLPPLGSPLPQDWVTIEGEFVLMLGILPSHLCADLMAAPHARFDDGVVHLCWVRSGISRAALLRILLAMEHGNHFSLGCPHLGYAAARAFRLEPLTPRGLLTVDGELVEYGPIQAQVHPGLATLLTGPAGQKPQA
- PROCEDURE_DETAILS: Determination of Ki values, recombinant mouse SphK2 in Sf9 cell homogenates
- CONDITION_CONTEXT: amidine HCl salt; recombinant mouse SphK2, Sf9 homogenate, 37 C, 20 minutes; read-out: SphK2 inhibitory constant (Ki)
pKi: −log10 of the molar value.
EXPERIMENTAL_ENDPOINT: pKi

GET /values?item= `N/C(=N\O)C1(C(=O)Nc2ccc(CCCCCCCCCc3ccccc3)cc2)CC1` &system= mouse SphK2 (Mus musculus (Mouse)) returns pKi: < 5.00

====

- STUDY_TARGET: human SphK1 (Homo sapiens (Human))
- Sequence (Q9NYA1 whole entry): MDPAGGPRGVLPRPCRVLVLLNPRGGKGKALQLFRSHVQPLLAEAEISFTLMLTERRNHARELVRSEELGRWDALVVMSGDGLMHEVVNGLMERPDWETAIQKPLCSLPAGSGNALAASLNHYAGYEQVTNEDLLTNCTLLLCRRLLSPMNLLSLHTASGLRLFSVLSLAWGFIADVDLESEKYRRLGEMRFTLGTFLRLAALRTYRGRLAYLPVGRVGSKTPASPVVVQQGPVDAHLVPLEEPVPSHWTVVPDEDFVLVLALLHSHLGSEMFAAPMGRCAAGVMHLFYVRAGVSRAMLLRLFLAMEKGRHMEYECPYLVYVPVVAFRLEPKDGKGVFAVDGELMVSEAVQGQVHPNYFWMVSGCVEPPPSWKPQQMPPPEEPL
- PROCEDURE_DETAILS: Determination of Ki values, recombinant human SphK1 in Sf9 cell homogenates
- Format: biochemical
- CONDITION_CONTEXT: amidine HCl salt; recombinant human SphK1, Sf9 homogenate, 37 C, 20 minutes; read-out: SphK1 inhibitory constant (Ki)
- Experimental: Sphingosine kinase activity was assessed as described previously (Kharel, Y., Lee, S., Snyder, A. H., Sheasley-O'Neill, S. L., Morris, M. A., Setiady, Y., Zhu, R., Zigler, M. A., Burcin, T. L., Ley, K., Tung, K. S. K., Engelhard, V. H., Macdonald, T. L. and Lynch, K. R. Sphingosine kinase 2 is required for modulation of lymphocyte traffic by FTY720. J Biological Chemistry 280: 36865-36872 (2005)). […]
EXPERIMENTAL_ENDPOINT: Ki
Please answer in the form of a number followed by its unit of measurement.

Param item: N/C(=N\O)C1(C(=O)Nc2ccc(CCCCCCCCCc3ccccc3)cc2)CC1 [VPC143129] ; param system: human SphK1 (Homo sapiens (Human)); output Ki: 500 nM
